Reference source: ChEMBL document CHEMBL4689842

Please go through the items and note down their Population Membrane Permeable-Phenotype (%).
System: U2OS
Assay method text: Multiplex assay against U2OS
Assay type: toxicity, cell-based
Applied conditions: human, 48 h, 1 µM, compound concentration 1 uM, replicate 1
Number first, unit second.

Entry COc1cc2ncn(-c3cc(OCc4ccccc4C(F)(F)F)c(C(N)=O)s3)c2cc1OC [GW843682X] ; Population Membrane Permeable-Phenotype (%) = 16%

Entry `COc1cc(Nc2nccc(-c3cnn4nc(OC)ccc34)n2)cc(C(F)(F)F)c1` ; Population Membrane Permeable-Phenotype (%) = 6%

Entry Cc1cccc(CN2CCN(C(c3ccccc3)c3ccc(Cl)cc3)CC2)c1.Cl.Cl (centres undefined) ; Population Membrane Permeable-Phenotype (%) = 1%

Entry `COc1ccc(-c2ccc3ncc4c(c3c2)n(-c2ccc(N3CCNCC3)c(C(F)(F)F)c2)c(=O)n4C)cn1.O=C(O)/C=C\C(=O)O` ; Population Membrane Permeable-Phenotype (%) = 80%

Entry `CC(C)NC(=O)N1CC[C@H](NC2=Nc3cc(F)ccc3N(CC(F)F)c3ccc(Cl)cc32)C1` ; Population Membrane Permeable-Phenotype (%) = 3%

Entry `CCc1ccc(OCc2ccccc2C(=O)Nc2ccc3nc(C)cc(N)c3c2)cc1.Cl` ; Population Membrane Permeable-Phenotype (%) = 75%

Entry `CC(C)(C)NC[C@H](O)COc1nsnc1N1CCOCC1` ; Population Membrane Permeable-Phenotype (%) = 1%

Entry `C[C@]12CC[C@@H]3c4ccc(O)cc4CC[C@H]3[C@@H]1CC[C@@H]2O` ; Population Membrane Permeable-Phenotype (%) = 2%

Entry `Cc1c[nH]c2nccc(Oc3c(F)cc(Nc4cc(Cl)nc(N)n4)cc3F)c12` ; Population Membrane Permeable-Phenotype (%) = 8%

====

Test system: Fibroblast
Assay method text: Multiplex assay against human fibroblast
Assay type: toxicity, cell-based
Applied conditions: 12 h, 10 µM, compound concentration 10 uM, replicate 1
Observed property: Population Normal (%)
Give just the numeric value; % need not be written.

Entry `CCc1ccc(OCc2ccccc2C(=O)Nc2ccc3nc(C)cc(N)c3c2)cc1.Cl` ; Population Normal (%) = 77

Entry COc1ccc(-c2ccc3ncc4c(c3c2)n(-c2ccc(N3CCNCC3)c(C(F)(F)F)c2)c(=O)n4C)cn1.O=C(O)/C=C\C(=O)O [BGT-226] ; Population Normal (%) = 85

Entry CC(C)c1noc(N2CCC(COc3ccc(-c4ccc(S(C)(=O)=O)cc4)nc3)CC2)n1 [GSK-1292263] ; Population Normal (%) = 94

Entry `CNC(=O)Nc1ccc(-c2nc(N3CC4CCC(C3)O4)c3cnn(C4CCC5(CC4)OCCO5)c3n2)cc1` ; Population Normal (%) = 83

====

Tested on: HEK-293T
Assay method text: Incucyte cell viability with HEK293T; also: filed as whole numbers so only -1 and 0 and 1 occur
Format: toxicity, cell-based
Applied conditions: human, 0 h, 10 µM, compound concentration 10 uM, replicate number 1, timepoint 0 hours
Please go through the items and note down their Growth Rate.
Form rule: numeric answer, no unit written next to it.

Entry `O=C([O-])c1cc2ccccc2c(Cc2c(O)c(C(=O)[O-])cc3ccccc23)c1O.[Na+].[Na+]` ; Growth Rate = 0

Entry `COc1cc2c(cc1NS(=O)(=O)c1ccc(Br)cc1C)n(C)c(=O)n2C` ; Growth Rate = 1

Entry CN1CCc2c(c3ccccc3n2Cc2ccc(C(=O)NO)cc2)C1 [TUBASTATIN A] ; Growth Rate = 0

Entry `CCNC(=O)c1cc2c(N3CCOC[C@@H]3C)ccnc2n1C` ; Growth Rate = 1

Entry C=CC(=O)Nc1ccc2[nH]c(=O)n(C3CCN(Cc4ccc(-c5nc6cc[nH]c(=O)c6cc5-c5ccccc5)cc4)CC3)c2c1 [Borussertib] ; Growth Rate = 0

Entry `Cl.Cl.Cl.c1ccc(N2CCN(Cc3nc4ccccc4[nH]3)CC2)nc1` ; Growth Rate = 1

Entry O=C(c1cc2c(cc1F)OC(c1ccc(F)cc1)(c1ccc(Cl)cc1Cl)O2)N1CCOCC1 (centres undefined) ; Growth Rate = 0

Entry `C[C@H](NC[C@H](O)CP(=O)(O)CC1CCCCC1)c1ccc(Cl)c(Cl)c1.Cl` ; Growth Rate = 1

Entry CC(C)CC(=O)Nc1[nH]nc2c1CN(C(=O)C1CCN(C)CC1)C2(C)C [PHA-793887] ; Growth Rate = 1

====

Test system: HEK-293T
Assay method text: Multiplex assay against HEK293T
Type: toxicity, cell-based
Applied conditions: human, 24 h, 10 µM, compound concentration 10 uM, replicate 2
Please go through the items and note down their Population Apoptotic (%).
Give just the numeric value; % need not be written.

Entry `Cc1nc(N2CC[C@H](O)C2)ncc1-c1cc(C(F)(F)F)cc2[nH]ncc12` ; Population Apoptotic (%) = 6

Entry `CN1CCN(Cc2ccc(Nc3ncc(Cl)c(Nc4ccccc4S(=O)(=O)N(C)C)n3)cc2)CC1` ; Population Apoptotic (%) = 28

Entry `COc1cc(Nc2nccc(-c3cnn4nc(OC)ccc34)n2)cc(C(F)(F)F)c1` ; Population Apoptotic (%) = 23

Entry `CC(C)(C)NC[C@H](O)COc1nsnc1N1CCOCC1` ; Population Apoptotic (%) = 8

Entry `COc1ccc(-c2ccc3ncc4c(c3c2)n(-c2ccc(N3CCNCC3)c(C(F)(F)F)c2)c(=O)n4C)cn1.O=C(O)/C=C\C(=O)O` ; Population Apoptotic (%) = 98

Entry `COC(=O)C1=C(C)NC(C)=C(C(=O)OCCCN2CCC(c3ccccc3)(c3ccccc3)CC2)[C@H]1c1cccc([N+](=O)[O-])c1` ; Population Apoptotic (%) = 79

Entry Cc1ccc2c(c1)c1c(n2CCc2ccc(C)nc2)CCN(C)C1 [LATREPIRDINE] ; Population Apoptotic (%) = 93

Entry `CC(C)OC(=O)N1CCC(Oc2ncnc3c2cnn3-c2ccc(S(C)(=O)=O)cc2F)CC1` ; Population Apoptotic (%) = 3

Entry `CC(C)c1noc(N2CCC(COc3ccc(-c4ccc(S(C)(=O)=O)cc4)nc3)CC2)n1` ; Population Apoptotic (%) = 14

Entry `COc1ccccc1CN[C@H]1C2CCN(CC2)[C@H]1C(c1ccccc1)c1ccccc1` ; Population Apoptotic (%) = 26

Entry `CC(C)NC(=O)N1CC[C@H](NC2=Nc3cc(F)ccc3N(CC(F)F)c3ccc(Cl)cc32)C1` ; Population Apoptotic (%) = 37

Entry `CC(C)CC(=O)Nc1[nH]nc2c1CN(C(=O)C1CCN(C)CC1)C2(C)C` ; Population Apoptotic (%) = 36

Entry `CNC(=O)Nc1ccc2c(c1)[C@@]1(CC2)OC(=O)N(CC(=O)N(Cc2ccc(F)cc2)[C@@H](C)C(F)(F)F)C1=O` ; Population Apoptotic (%) = 7

Entry O=C(c1cc2c(cc1F)OC(c1ccc(F)cc1)(c1ccc(Cl)cc1Cl)O2)N1CCOCC1 (configuration not stated) ; Population Apoptotic (%) = 53

Entry `Cc1ccc(C)c(Oc2ccncc2C(=O)N2CCN(C3CC3)c3ccccc32)c1` ; Population Apoptotic (%) = 68

Entry `Cc1c[nH]c2nccc(Oc3c(F)cc(Nc4cc(Cl)nc(N)n4)cc3F)c12` ; Population Apoptotic (%) = 31

Entry `C=CC(=O)Nc1cccc(Oc2nc(Nc3ccc(N4CCN(C)CC4)cc3OC)ncc2Cl)c1` ; Population Apoptotic (%) = 2

====

Please go through the items and note down their Growth Rate.
Tested on: U2OS
Assay method text: Incucyte cell viability with U2OS; also: filed as whole numbers so only -1 and 0 and 1 occur
Format: toxicity, cell-based
Applied conditions: human, 6 h, 10 µM, compound concentration 10 uM, replicate number 1, timepoint 6 hours
Form rule: numeric answer, no unit written next to it.

Entry `Cn1c(CNc2cccc(C(=O)NCc3ccccc3C(F)(F)F)c2)nnc1-c1ccncc1` ; Growth Rate = 0

Entry `CCCOc1ccc([C@H]2[C@H](C(=O)O)[C@@H](c3ccc4c(c3)OCO4)CN2CC(=O)Nc2c(CC)cccc2CC)cc1` ; Growth Rate = 0

Entry `CC#CC(=O)N1CCC[C@H]1c1nc(-c2ccc(C(=O)Nc3ccccn3)cc2)c2c(N)nccn12` ; Growth Rate = 0

Entry `CCOC(=O)c1cc2cc(-c3cc(C(=O)NCc4ccc(C(=O)O)cc4)nn3C)ccc2[nH]1` ; Growth Rate = 1

Entry `COc1cc2ncnc(Nc3ccc(F)c(Cl)c3)c2cc1OCCCN1CCOCC1` ; Growth Rate = 0

Entry Cc1cc(C(C)(C)C)c(O)c(C)c1CC1=NCCN1.Cl [OXYMETAZOLINE HYDROCHLORIDE] ; Growth Rate = 0

Entry `Cc1cc(NC(=O)c2cccc(S(F)(F)(F)(F)F)c2)cc(-n2ccn3nc(-c4cccnc4)cc23)c1` ; Growth Rate = 0

Entry `CN1CCN(Cc2ccc(Nc3ncc(Cl)c(Nc4ccccc4S(=O)(=O)N(C)C)n3)cc2)CC1` ; Growth Rate = 1

Entry `CN1CCN(Cc2cc(NC(=O)c3ccc4c(c3)CN(c3ccccc3)CC4)cc(C(F)(F)F)c2)CC1` ; Growth Rate = 0

Entry `Cc1cnc(-c2cc(Cl)ccc2F)cc1-n1c(=O)n(CC(N)=O)c2ccccc21` ; Growth Rate = 1

Entry `C=CC(=O)Nc1cccc(Oc2nc(Nc3ccc(N4CCN(C)CC4)cc3OC)ncc2Cl)c1` ; Growth Rate = 0

Entry `CC(C)CC(=O)Nc1[nH]nc2c1CN(C(=O)C1CCN(C)CC1)C2(C)C` ; Growth Rate = 0

Entry `Cl.O=C(O)c1cc(-c2ccc(C3CCNCC3)cc2)c2ccc(-c3ccc(C(F)(F)F)cc3)cc2c1` ; Growth Rate = 0

Entry CCc1nn(CCCN2CCN(c3cccc(Cl)c3)CC2)c(=O)n1CCOc1ccccc1.Cl [NEFAZODONE HYDROCHLORIDE] ; Growth Rate = 1

Entry `Cc1csc(NC(=O)c2cc(F)cc(Oc3cncnc3)c2)n1` ; Growth Rate = 1

Entry `CC(C)N(CCCNC(=O)Nc1ccc(C(C)(C)C)cc1)C[C@H]1O[C@@H](n2cc(Br)c3c(N)ncnc32)[C@H](O)[C@@H]1O` ; Growth Rate = 1

Entry `Cc1cc(-n2nc(Cc3cc(F)cc(C(F)(F)F)c3)nc2C)ccc1C(N)=O` ; Growth Rate = 0
